conditions: 363.15 K; 101.33 kPa; Liquid; Concentric cylinders viscometry
Readout label: viscosity (mPa·s)
Kindly provide the numeric value in mPa·s only, without the unit symbol.

Examples with their reported viscosity follow.
# Molecule, Experimental value
data = [
    ("C1CCC2=[NH+]CCCN2CC1.CC(=O)[O-] [2,3,4,6,7,8,9,10-octahydropyrimido[1,2-a]azepinium acetate]", 8.052),
    ("C1CCC2=NCCC[NH+]2CC1.O=C([O-])C(F)(F)F [1,8-diazabicyclo[5.4.0]undec-7-enium trifluoroacetate]", 23.43),
    ("C1CCC2=[NH+]CCCN2CC1.O=S(=O)([O-])C(F)(F)F", 31.75),
]

**Query** Value lookup for viscosity; key = C1CCC2=NCCC[NH+]2CC1.CS(=O)(=O)[O-] [1,8-diazabicyclo[5.4.0]undec-7-enium methanesulfonate]
**Result** 34.12

====

Reported mass density values for a set of molecules
conditions: 333.15 K; 101.33 kPa; Liquid; Vibrating tube method
Numbers after ± are expanded uncertainties.

Examples with their reported mass density follow.
# Molecule, Experimental value
records = [
    ("C1CCC2=NCCC[NH+]2CC1.CS(=O)(=O)[O-] [1,8-diazabicyclo[5.4.0]undec-7-enium methanesulfonate]", "1199.5 ± 4.2 kg/m3"),
    ("C1CCC2=NCCC[NH+]2CC1.O=C([O-])C(F)(F)F [1,8-diazabicyclo[5.4.0]undec-7-enium trifluoroacetate]", "1234 ± 4.2 kg/m3"),
    ("C1CCC2=[NH+]CCCN2CC1.O=S(=O)([O-])C(F)(F)F", "1329 ± 4.3 kg/m3"),
]

**Query** Value lookup for mass density; key = C1CCC2=[NH+]CCCN2CC1.CC(=O)[O-] [2,3,4,6,7,8,9,10-octahydropyrimido[1,2-a]azepinium acetate]
**Result** 1048.7 ± 4.1 kg/m3

====

Reported mass density values for a set of compounds
details: 323.15 K; 101.33 kPa; Liquid; Vibrating tube method
Kindly provide the numeric value in kg/m3 only, without the unit symbol.

**Query** Value lookup for mass density; key = C1CCC2=NCCC[NH+]2CC1.O=C([O-])C(F)(F)F [1,8-diazabicyclo[5.4.0]undec-7-enium trifluoroacetate]
**Result** 1241.4

**Query** Then C1CCC2=[NH+]CCCN2CC1.O=S(=O)([O-])C(F)(F)F ?
**Result** 1336.7

**Query** Then C1CCC2=[NH+]CCCN2CC1.CC(=O)[O-] [2,3,4,6,7,8,9,10-octahydropyrimido[1,2-a]azepinium acetate] ?
**Result** 1055.6

**Query** Then C1CCC2=NCCC[NH+]2CC1.CS(=O)(=O)[O-] [1,8-diazabicyclo[5.4.0]undec-7-enium methanesulfonate] ?
**Result** 1206.1

====

conditions: 343.15 K, Pendant drop shape
Reported surface tension liquid-gas values for a set of molecules
Kindly provide the numeric value in mN/m only, without the unit symbol.

# Molecule, surface tension liquid-gas / mN/m
data = [
    ("C1CCC2=NCCC[NH+]2CC1.CS(=O)(=O)[O-] [1,8-diazabicyclo[5.4.0]undec-7-enium methanesulfonate]", 38.23),
]

**Query** Value lookup for surface tension liquid-gas; key = C1CCC2=[NH+]CCCN2CC1.CC(=O)[O-] [2,3,4,6,7,8,9,10-octahydropyrimido[1,2-a]azepinium acetate]
**Result** 31.46

**Query** Then C1CCC2=[NH+]CCCN2CC1.O=S(=O)([O-])C(F)(F)F ?
**Result** 27.71

**Query** Then C1CCC2=NCCC[NH+]2CC1.O=C([O-])C(F)(F)F [1,8-diazabicyclo[5.4.0]undec-7-enium trifluoroacetate] ?
**Result** 30.15
